MEASURED QUANTITY: melting point

MOLECULE	RESULT VALUE
CC(C)(C)c1cc(OCCCCC(=O)O)cc(C(C)(C)C)c1	113 to 115 °C
O=C1C(c2cc3c(cc2O)OCC3)c2ccc(F)cc2N1C(c1ccccc1)c1ccccc1 (stereo unspecified)	121 to 123 °C
Nc1nc2cccnc2c2c1nc(O)n2CC1CCOCC1	250 to 260 °C
O=c1[nH]nc(-c2ccccc2)c(-c2ccccc2)c1-c1ccccc1	290 to 292 °C
NC(CCCBr)C(=O)c1ccccc1 (stereo unspecified)	74 to 76 °C
COCc1cc2c3ccccc3n(C)c(=O)n2n1	98 to 100 °C

* * *

Each item that follows carries a reported melting point.
MEASURED QUANTITY: melting point

COMPOUND	MEASURED QUANTITY	RESULT VALUE
OC1(c2ccc(-c3cccnc3)cc2)CN2CCC1CC2 (centres undefined)	melting point	172 to 173 °C
CCOc1ccc(CN2C(=O)SC(CCCC#Cc3ccc(Cl)cc3)(S(=O)(=O)c3ccc(C)cc3)C2=O)c(OCC)c1 (centres undefined)	melting point	151 to 153 °C
O=C(O)CN1C(=O)[C@@H](N[C@@H](CCC2CCCCC2)C(=O)O)CSc2ccccc21	melting point	207 to 210 °C
CC(C)c1ccc(N(Cc2ccc(N(C)C)cc2)C(=O)C2CCCc3cc(OCc4ccccc4)ccc32)cc1 (centres undefined)	melting point	107 to 109 °C
C/C(=N\O)c1ccc(SSc2ccc(/C(C)=N/O)cn2)nc1	melting point	200 to 201 °C
CCOC(=O)c1cn(Cc2ccccc2)nc1OCc1ccc(OCc2nc(-c3ccco3)oc2C)c(OCc2ccccc2)c1	melting point	127 to 128 °C
C=CCn1c2c(c3ccccc31)C(=O)C(Cn1ccnc1C)CC2 (centres undefined)	melting point	132 °C
CCc1nc(Br)c(Br)[nH]1	melting point	149 to 150 °C
O=C(NC(=O)c1ccccc1Cl)Nc1cnc(C(F)(F)F)cn1	melting point	219 to 220 °C

* * *

Quick list: melting point per entry.

COMPOUND	melting point
N#Cc1ccc(OC(Cc2ccc(OCCNC(=O)c3ccc(-c4ccccn4)cc3)cc2)C(=O)O)cc1 (stereo unspecified)	92 to 93 °C
c1ccc(OCNc2ccncc2)cc1	159 to 160 °C
Cc1ccc(Nc2ccnc(-n3nc(C)cc3C)n2)cc1	52 to 55.6 °C
Cc1c(F)c(F)c(F)c2c1c(=O)c(C(=O)O)cn2-c1ccc(F)cc1F	221 to 222 °C
Brc1cnc(Br)c2ccccc12	95 to 96 °C
C=Cc1[nH]c2cccc3c2c1CC1C3CC(NC(=O)N(CC)CC)CN1C (stereo unspecified)	145 to 150 °C

* * *

Recorded melting point by entry
MEASURED QUANTITY: melting point

COMPOUND	RESULT VALUE
CCC(=O)NCC1Cc2cccc3cccc1c23 (stereo not drawn)	111 °C
O=C1NCC(Cc2cccc(F)c2)O1 (stereo not drawn)	77 to 78 °C
N=C(NC(=O)c1ccc2ccccc2c1)c1ccc(N2CC(CN3CCN(CCC(=O)O)CC3)OC2=O)cc1 (stereo not drawn)	80 to 83 °C
CC(=O)NCc1ccc(C#Cc2ccc3c(c2)C(C)(C)CCC3(C)C)cc1	220 to 223 °C
CC(C)(CNc1ccnc2cc(Cl)ccc12)NCc1ccc(Cl)cc1Cl	138 to 139 °C
CN1CCCCC1=NC(=O)Nc1ccccc1	145 to 158 °C
Cn1nc(OC2=CC(CF)(CF)Oc3ccc(C(F)(F)C(F)(F)F)cc32)ccc1=O	150 to 152 °C
Cc1cc(NC(=O)c2cn(-c3ccccc3)c3ccccc3c2=O)no1	163 to 164 °C
O=c1ccc(-c2c(-c3ccccc3)nn3ccccc23)nn1C1CCCCC1	115 to 117 °C
O=C1C=C(c2ccc(OC(F)(F)F)cc2)CO1	122 to 123 °C
O=C(Nc1cccc2c(Sc3ncc[nH]3)c(Br)cnc12)c1c(Cl)cccc1Cl	249 to 251 °C
C/C(=C\c1ccc(O)cc1)c1ccc2c(c1)SC(C)(C)S2	123 to 124 °C
COc1cc(CC(=O)Nc2nn(-c3ccccc3)cc2C=O)ccc1OCc1nc(-c2ccccc2)oc1C	156 to 158 °C
CN(Cc1ccccc1)C1c2ccccc2CCCC1O (stereo not drawn)	70 °C
CCCCCCCCCCCCCCCCCCN1C(=O)CCC1=O	75.8 °C
CCCCCCCCCCCCCCCC(=O)Nc1cc(NC(=O)CCCCCCCCCCCCCCC)cc(C(=O)N(CC(=O)O)CC(=O)O)c1	129 to 133 °C
CCCc1c(OCCCSc2ccc(C(=O)CCC(=O)O)cc2)ccc(C(C)=O)c1OC(C)=O	121 to 123 °C
O=C1c2ccccc2C2(O)Oc3ccc([N+](=O)[O-])cc3C12O (stereo not drawn)	206 to 207 °C

* * *

Each entry below carries its recorded melting point.

SMI	melting point
CCOC(=O)CS(=O)(=O)Nc1ccccc1CC(=O)OC	86 to 88 °C
Cn1c(=O)c2c(NN)nccc2n(C)c1=O	244 °C
CC12CC3(C)CC(CO)(C1)CC(CO)(C2)C3	158 to 161 °C

* * *

MEASURED QUANTITY: melting point

MOLECULE	RESULT VALUE
c1ccc2c(c1)N(CC1CCCCC1)CC21COc2cc3c(cc21)OCO3 (centres undefined)	153 to 154 °C
CCC(C(=O)O)N(C(=O)c1cn(-c2cccc(C(F)(F)F)c2)nc1C)c1ccc(OCC(C)(C)C)c(C#N)c1 (centres undefined)	156 to 158 °C
CCCOc1cc(O)nc(N(C)C)n1	194 to 195 °C
CCCCCCC(C(=O)N1CCCC1CC(=O)O)n1cnc2cc(-c3ccccc3-c3nn[nH]n3)ccc21 (centres undefined)	122 to 125 °C

* * *

COMPOUND	melting point
COC(=O)c1ccc2oc(-c3ccc(C(F)(F)F)cc3)cc2c1	180 °C
O=[N+]([O-])c1ccc(Cl)c(S)c1	267 to 268 °C
CCOC(=O)C1=C(COCCO)Nc2ccnc(OC(C)C)c2C1c1ccccc1C(F)(F)F (configuration not stated)	109 to 112 °C
Cc1cc(-n2ccnc2)c2cccc(O)c2n1	192 to 196 °C
CC(C)COc1ccc(COc2ccc(CC(=O)O)cc2Cl)cc1	107 to 108 °C
COC(=O)C1(C(C[N+](=O)[O-])c2ccccc2)CCc2ccccc2C1=O (configuration not stated)	101 to 103 °C
COc1cc(CC2SC(=O)NC2=O)ccc1OCCN1c2ccccc2Sc2ccccc21 (configuration not stated)	46 to 48 °C
Cc1c(C)c(NC(=O)CC(C)(C)C)c2c(c1C)C(O)(c1ccc(C(C)C)cc1)C(C)(C)O2 (configuration not stated)	178 to 179 °C
COc1ccc(-c2ccc(Cl)c(C(=O)NCC34CC5CC(CC(C5)C3)C4)c2)c(C(=O)O)c1	219 to 221 °C
CCCCCc1cc(C(=O)O)c(C)o1	47 to 48 °C
CC1=C(c2ccnc3ccccc23)SCC(=O)N1	174 to 176 °C
NC(=O)NC1(C(=O)O)CCCc2ncc(Cl)cc21 (configuration not stated)	188 to 190 °C
CCNC(=O)c1c([Si](C)(C)C)ccc(SC)c1Cl	137 to 139 °C
CCNNc1nc(C)c(C(=O)OCC)c(Cl)c1[N+](=O)[O-]	117 to 120 °C
O=C(O)C(CC1CCCC1)c1ccc(Cl)c([N+](=O)[O-])c1 (configuration not stated)	112 to 115 °C
COc1cc2c3c(c1O)CN(C)CC3c1ccccc1CC2 (configuration not stated)	173 to 174 °C
O=C1Nc2ccc(Cl)cc2C(C#Cc2ccccc2)(C(F)(F)F)O1 (single isomer, unassigned; (-))	178 to 179 °C
CC(COc1ccc(O)c(C(N)=O)c1)NCC(O)c1ccccn1 (configuration not stated)	147 to 165 °C
C#CC(CC)(CC)NC(=O)C(CCN1CCN(c2ccccc2OC)CC1)c1ccccc1 (configuration not stated)	110 to 112 °C
N#Cc1ccccc1C(Cl)(Cl)Cl	98.9 to 100 °C
Cc1ccc(S(=O)(=O)NC(=O)C(C)(N)C(C)C)cc1 (configuration not stated)	262 to 265 °C
O=C(CNCc1ccccc1)Nc1cccc2[nH]ccc12	158 to 161 °C
COC(=O)c1ccc2c(c1)S(=O)(=O)c1ccccc1NC2	236 °C
CC(CCc1ccccc1)NCC(O)c1cc(C(N)=O)c2[nH]ccc2c1 (configuration not stated)	94 to 100 °C
CCOC(=O)c1c(O)c(Br)c(Br)n1-c1ccccc1	144 to 145 °C
Cc1ccccc1CC(=NC#N)NC(NC(=O)CF)C(C)(C)C (configuration not stated)	151 to 152 °C
COCOc1cc(OC)ccc1C(=O)c1cccc(OCc2nc(-c3ccccc3)oc2C)c1	117 to 118 °C
CC1(C)CN(CCN2CC(C)(C)N(O)C(C)(C)C2=O)C(=O)C(C)(C)N1O	193 °C
Cc1ccc(S(=O)(=O)N2CCC[C@@H]2C(=O)N[C@H](Cc2ccccc2)C(=O)O)cc1	71 to 75 °C
CSc1ncccc1NC(=O)CCCCCSc1nc2ccccc2s1	118 to 119 °C
CC1CCC(NC(=O)NS(=O)(=O)c2ccc(CCNC(=O)N3CCC(C)CC3=O)cc2)CC1 (configuration not stated)	190 to 191 °C
O=C(O)c1ccc(NCc2ccc(OCc3ccccc3)cc2)cc1	206 to 208 °C
